Recorded endpoint: melting point

| Compound | melting point |
| --- | --- |
| CSc1cc(C)nc(SC)c1NC(=O)CC=CC1=C(c2ccccc2)c2ccccc2OC1 | 204 to 206 °C |

Which melting point is listed for COc1cc2c(cc1OC)C(C=Cc1cccc(OC)c1OC)=NN(C(C)=O)C(C)C2 (centres undefined) ?
72 to 74 °C

And for O=C(c1ccc(Cc2ccc(F)cc2)o1)c1oc(CO)cc(=O)c1OCc1ccccc1 ?
104 to 106 °C

And for C=CCOc1cc(Cl)ccc1C(=O)OC ?
47 to 55 °C

====

Recorded endpoint: melting point (°C)
Kindly answer with a numeric value in °C, unit omitted.

| Compound | Recorded endpoint | Numeric value |
| --- | --- | --- |
| CCCc1ccc(S(=O)(=O)Nc2ccc3nc(C)oc3c2)cc1 | melting point | 102 |

Now let's try a different one.
Which melting point is listed for CC(C)(C)OC(=O)NCCCBr ?
40

====

# melting point listing for each entry below

Recorded melting point, per entry:
| Compound | Result |
| --- | --- |
| COc1cc2c(cc1OC)CN(c1cc(Cl)ncn1)CC2 | 88 to 89 °C |
| CC(C(O)c1ccc2[nH]c(=O)[nH]c2c1)N1CCC(Cc2ccccc2)CC1 (centres undefined) | 221 to 222 °C |
| CN1CCC(c2cccc3c2C[C@H](NC(=O)c2ccc(C(F)(F)F)cc2)CC3)CC1 | 163 to 166 °C |
| CCNn1cc(C(=O)O)c(=O)c2cc3c(cc21)OCO3 | 242 °C |
| O=C(NC(CS)Cc1ccccc1)N1CCN(c2ccccc2)CC1 (single isomer, unassigned; (+)) | 122 °C |

Which melting point is listed for O=C(O)[C@H]1Cc2ccccc2CN1S(=O)(=O)c1ccc(-c2ccccc2)cc1 ?
195 to 202 °C

====

Recorded endpoint: melting point

Recorded melting point, per entry:
| Compound | Recorded endpoint | Result |
| --- | --- | --- |
| CNC(=S)N(C)c1nccs1 | melting point | 68 to 69 °C |
| C[C@H]1CN(c2c(F)cc3c(=O)c(C(=O)O)cn(CCF)c3c2Cl)C[C@H]1NC(=O)OC(C)(C)C (relative stereo) | melting point | 229 to 231 °C |
| O=C(NCc1cc(C(F)(F)F)cc(C(F)(F)F)c1)c1c(-c2ccccc2)c2cccnc2c(=O)n1CCCCO | melting point | 155 to 157 °C |
| CC(C)(C)NC(=O)[C@@H](N)C(C)(C)C | melting point | 78 to 80 °C |
| S=C(Nc1ccccc1)Nc1ncccc1OCc1ccc(Cl)cc1 | melting point | 162 to 164 °C |

Which melting point is listed for Clc1ccc(-c2c(-c3ccncc3)nc(-c3c(Cl)cccc3Cl)n2C2CC2)cc1 ?
210 to 211 °C

====

# melting point listing for each entry below

| Compound | Result |
| --- | --- |
| COc1ccc(C(=O)Nc2ccccc2)cc1NC(=S)Nc1ccc(Cl)c(C(F)(F)F)c1 | 172 to 173 °C |
| N#CSCOc1c(Cl)cc(Cl)c(Cl)c1Cl | 51 to 53 °C |
| CC(C)Cn1c(=O)n(C)c(=O)c2c(SCC(C)O)c(Cc3cccc4ccccc34)sc21 (stereo unspecified) | 126 to 128 °C |

Which melting point is listed for COC(=O)C(=O)c1ccnc(NC=O)n1 ?
143 to 144 °C

And for CC1CCN(c2ccc(Nc3ncc4c(n3)S/C(=C/c3ccc([N+](=O)[O-])cc3)C(=O)N4)cc2)CC1 ?
280 to 282 °C

And for CSC(=S)Nc1ccccc1N ?
114 °C

====

# melting point listing for each entry below

Recorded melting point, per entry:
| Compound | Recorded endpoint | Result |
| --- | --- | --- |
| CSc1ccc(F)c(C#N)c1 | melting point | 61.7 to 62.7 °C |
| CS(=O)(=O)CCC(=O)Nc1ccc(OCC(O)CO)cc1 (stereo unspecified) | melting point | 160 to 162 °C |
| O=C(NCCC(=O)N1CCCCC1)c1ccc(-c2ccc3nnn(Cc4ccc5ncccc5c4)c3n2)cc1F | melting point | 109 to 111 °C |
| CSc1cc2c([nH]1)CC(C)(C)CC2=O | melting point | 195 to 196 °C |
| Cc1cc(C2=NN=C(C=NNC(N)=O)Cc3cc4c(cc32)OCO4)ccc1[N+](=O)[O-] | melting point | 260 to 264 °C |
| CN(C)c1cccc(C(=O)NC2CCN(C(c3ccccc3)c3ccccc3)CC2)c1[N+](=O)[O-] | melting point | 176 °C |
| CCOC(=O)c1ccc2c(c1)CCC(=Cc1cccnc1)C2=O | melting point | 112 to 114 °C |
| CCOC(=O)c1ccc(-n2cnnc2)cc1 | melting point | 209 to 211 °C |

Which melting point is listed for COc1cc[nH]c1C=C1C(=O)Nc2cccc(C#CC(O)c3ccc(OCC(=O)OC(C)(C)C)cc3)c21 (racemic) ?
173 to 175 °C

====

# melting point listing for each entry below

Recorded melting point, per entry:
| Compound | melting point |
| --- | --- |
| CC(C)(COc1ccc(O)c(C(N)=O)c1)NCC(O)COc1ccccc1C#N (stereo unspecified) | 125 to 126 °C |
| Cc1ccc(S(=O)(=O)OCCc2cc3ccccc3o2)cc1 | 195 to 197 °C |
| CC(C)CCCC(C)C1CCC2C3=CC=C4CC(OC(=O)c5ccccc5)CC(OC(=O)c5ccccc5)C4(C)C3CCC21C (stereo unspecified) | 161 °C |
| O=S(c1ccccc1)c1ncc(Cl)cn1 (stereo unspecified) | 115 °C |
| CC(C)(Oc1ccc(NC(=O)Cc2ccccc2)cc1)C(=O)O | 173 to 175 °C |
| CC(=O)NC(=O)NCC(=O)N1CC1C#N (stereo unspecified) | 118 to 122 °C |
| O=C(O)[C@H](CC1CCCCC1)n1cccc1 | 78 to 80 °C |
| Cc1ccc(C=O)n1Cc1ccc(Cl)cc1Cl | 86 to 87 °C |
| CN(C)S(=O)(=O)c1cc(-c2csc(=Nc3ccc(F)cc3)n2C)ccc1Cl | 144 to 145 °C |
| CCC1(O)CCC2C3=C(CCC21C)c1ccc(OC)cc1CC3 (stereo unspecified) | 105 to 120 °C |

Which melting point is listed for CC#CCN(C)c1ccc(OC23CC4CC(CC(C4)C2)C3)cc1 ?
180 to 181 °C

And for Cn1cc(C2=C(c3c4n(c5ccccc35)CCCC4)C(=O)NC2=O)c2ccccc21 ?
286 to 289 °C

====

Recorded endpoint: melting point

Recorded melting point, per entry:
| Molecule | Result |
| --- | --- |
| O=C1c2ccccc2C(=O)N1c1cccc(S(F)(F)(F)(F)F)c1 | 188 to 190 °C |
| CCOC(=O)C(C#N)=C(NCc1ccccc1)NCC1CN(Cc2ccc(F)cc2)CCO1 (stereo not drawn) | 107 to 108 °C |
| COCCOc1ccc(C2=NCCNC2=O)cc1 | 130 to 132 °C |
| CC(=O)NC(C)(C(=O)O)C(C)C (stereo not drawn) | 189 to 190 °C |
| Cc1oc(-c2ccccc2)nc1COc1ccc(CON=C(CCCCC(=O)O)c2ccccc2)cc1 | 101 to 102 °C |
| O=C(O)c1c(-c2cccc([N+](=O)[O-])c2)oc2ncnc(O)c12 | > 300 °C |

Which melting point is listed for COc1ccc(C(=O)NCCCCn2cnc3c(N)nc4ccccc4c32)c(OC)n1 ?
175 to 177 °C

And for O=C(Nc1ccccc1)c1cc(Oc2ccc(C(F)(F)F)cc2Cl)ccc1[N+](=O)[O-] ?
190 to 194 °C

And for CN1CCc2c(F)c(F)c(N)c3c(=O)c(C(=O)O)cn1c23 ?
> 290 °C

And for O=Cc1cccn1-c1ccc(C(F)(F)F)cc1Cl ?
119 to 120 °C

And for CCNC(=O)n1nc(Oc2c(Cl)cc(C(F)(F)F)cc2Cl)cc1C ?
80 to 82 °C

And for Cc1c(/C=C/C(=O)N(C)C)ncn1C(c1ccccc1)(c1ccccc1)c1ccccc1 ?
195 to 197 °C

And for CC(C)Cc1nc[nH]n1 ?
71 to 73 °C

====

Recorded endpoint: melting point

Recorded melting point, per entry:
| Molecule | melting point |
| --- | --- |
| CC(C)(C)OC(=O)NCc1ccc(-n2c(-c3cccnc3N)nc3ccc(-c4cn[nH]c4)nc32)cc1 | 243 to 244 °C |
| Oc1nc(-c2ccc(F)cc2)sc1-c1ccccc1 | 231 to 233 °C |

Now let's try a different one.
Which melting point is listed for CCOC(=O)C1[C@@H]2[C@@H](O)[C@@H]3O[C@H](c4ccc(F)cc4F)OC[C@H]3O[C@H]12 (stereo partly drawn) ?
130 to 133 °C

Origin of the recorded values: a melting point compilation (Tetko et al.; mined from patent text by program, amines drawn as free bases though some values may be those of a salt)
